Where do these numbers come from? They come from ChEMBL document CHEMBL1255184.

protocol: Plasma clearance in Wistar rat at 2 mg/kg, iv
Format: ADME, organism-based
Parameters: dose 2 mg/kg, route intravenous
measurement_label: clearance

As a guide, the following entries are already answered.
# smiles_data, measurement_label, result
records = [
    ("CNCc1cn(CC(=O)Nc2sc3c(c2C(N)=O)CCCC3)nc1C(C)(C)C", "clearance", "9 mL/min/kg"),
    ("CCNCc1cn(CC(=O)Nc2sc3c(c2C(N)=O)CCCC3)nc1C(F)(F)F", "clearance", "15 mL/min/kg"),
    ("CNCc1cn(CC(=O)Nc2sc3c(c2C(N)=O)CCCC3)nc1C(F)(F)F", "clearance", "23 mL/min/kg"),
    ("O=C(Cn1nc(C(F)(F)F)c2c1CCCC2)Nc1sc2c(c1C(=O)N[C@@H]1CCNC1)CCCC2", "clearance", "2.3 mL/min/kg"),
]

Now look at this entry.
Item `CNCc1cn(CC(=O)Nc2sc3c(c2C(=O)NC)CCCC3)nc1C(F)(F)F` has what recorded clearance? 43 mL/min/kg
